# System: DBA/2 mice
# experimental_protocol: Audiogenic seizure model
# Format: in vivo
# condition_set: Mus musculus; male and female DBA/2 mice, 30 mg/kg oral, auditory stimulation 1 hour after administration; read-out: Seizure suppression rate (%)
What inhibition in vivo at 30 mg/kg was measured for each of the following?
I'd appreciate it if you included the unit after the number.

Sample records with inhibition in vivo at 30 mg/kg:
| molecule | target_entity | inhibition in vivo at 30 mg/kg |
| --- | --- | --- |
| O=C1CCN(c2ccccc2)C(=O)N1 [Comparative Example, reference compound] | DBA/2 mice | 27% |
| [2H]C([2H])([2H])Oc1cccc(Oc2ncc(N3CCC(=O)NC3=O)cn2)c1 | DBA/2 mice | 89% |
| Cc1ccc(F)cc1Oc1ncc(N2CCC(=O)NC2=O)cn1 | DBA/2 mice | 100% |

Would you mind giving inhibition in vivo at 30 mg/kg for every molecule in the list below?
1. O=C1CCN(c2cnc(Oc3ccc(F)cc3)nc2)C(=O)N1
2. O=C1CCN(c2cnc(Oc3cccc(SC(F)(F)F)c3)nc2)C(=O)N1
3. C#Cc1ccc(Oc2ncc(N3CCC(=O)NC3=O)cn2)cc1
4. O=C1CCN(c2cnc(Oc3cccc(OC(F)(F)F)c3)nc2)C(=O)N1

Result:
1. 97%
2. 100%
3. 82%
4. 86%

* * *

# Test system: DBA/2 mice
# experimental_protocol: Audiogenic seizure model
# Format: in vivo
# condition_set: Mus musculus; male and female DBA/2 mice, 30 mg/kg oral, auditory stimulation 1 hour after administration; read-out: Seizure suppression rate (%)
Could you please report measured inhibition in vivo at 30 mg/kg for the items listed next?
Answers are plain numbers, in %.

# annotated cases, reported inhibition in vivo at 30 mg/kg shown
| molecule | unit_tag | inhibition in vivo at 30 mg/kg |
| --- | --- | --- |
| O=C1CCN(c2cnc(Oc3cc(F)cc(F)c3)nc2)C(=O)N1 [Example 14] | % | 92 |
| O=C1CCN(c2cnc(Oc3cccc(S(F)(F)(F)(F)F)c3)nc2)C(=O)N1 [Example 24] | % | 90 |
| CCc1cccc(Oc2ncc(N3CCC(=O)NC3=O)cn2)c1 [Example 7] | % | 88 |
| Cc1c(F)cccc1Oc1ncc(N2CCC(=O)NC2=O)cn1 [Example 6] | % | 89 |

Please give inhibition in vivo at 30 mg/kg for each item listed below.
1. O=C1CCN(c2cnc(Oc3ccc(Cl)cc3)nc2)C(=O)N1 [Example 40]
2. O=C1CCN(c2cnc(Sc3ccccc3)nc2)C(=O)N1 [Example 8]
3. O=C1CCN(c2cnc(Oc3cccc(Cl)c3)nc2)C(=O)N1 [Example 26]
4. COc1nc(Oc2cccc(F)c2)ncc1N1CCC(=O)NC1=O [Example 42]
5. O=C1CCN(c2cnc(Oc3cccc(-c4ccccc4)c3)nc2)C(=O)N1 [Example 45]
6. O=C1CCN(c2cnc(Oc3ccccc3F)nc2)C(=O)N1 [Example 2]
7. C[Si](C)(C)c1cccc(Oc2ncc(N3CCC(=O)NC3=O)cn2)c1 [Example 56]
8. O=C1CCN(c2cnc(Oc3ccc(F)cc3F)nc2)C(=O)N1 [Example 12]

Result:
[81, 100, 100, 96, 92, 100, 82, 96]

* * *

I'd appreciate it if you could supply inhibition in vivo at 30 mg/kg values for the items below.
# System: DBA/2 mice
# experimental_protocol: Audiogenic seizure model
# Format: in vivo
# condition_set: Mus musculus; male and female DBA/2 mice, 30 mg/kg oral, auditory stimulation 1 hour after administration; read-out: Seizure suppression rate (%)
Give bare numbers, in %.

For orientation, consider the following solved cases.
| compound | unit_tag | inhibition in vivo at 30 mg/kg |
| --- | --- | --- |
| O=C1CCN(c2cnc(Oc3ccc(F)c(F)c3)nc2)C(=O)N1 | % | 83 |
| CC1CC(=O)NC(=O)N1c1cnc(Oc2ccccc2)nc1 (stereo not drawn) | % | 100 |
| COc1nc(Oc2ccc(F)cc2F)ncc1N1CCC(=O)NC1=O | % | 83 |
| O=C1CCN(c2cnc(Sc3cccc(F)c3)nc2)C(=O)N1 | % | 79 |
| CN1C(=O)CCN(c2cnc(Oc3cccc(F)c3)nc2)C1=O | % | 100 |

Pending compound:
Problem: Provide measured inhibition in vivo at 30 mg/kg value, entry: C#Cc1cccc(Oc2ncc(N3CCC(=O)NC3=O)cn2)c1
Result: 100
